Origin of measurements: PubChem BioAssay

assay: binders of probe aFST on microarray, primary screen, stem cell growth factor project, biochemical, small-molecule microarray, fluorescence 635/667 (AID 1086);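 further: score merges 667 nm fluorescence with signal-to-noise of each printed compound spot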
appliedConditions: higher = more signal
Class true: composite z-score at least -0.04. Class false: composite z-score below -0.04.

[[record]]
compound = "CC(C)CON=C1[C@H]2CCn3c(=O)n(C)c(=O)n3[C@H]2[C@H](O)[C@@H]2O[C@H]12"
classlabel = "false"


Exercise: Check this compound for composite z-score at or above -0.04: CCOC(=O)CCN1C(=O)[C@H]2[C@H]3[C@H](O)[C@H](O)CC(=NNC(=O)OCc4ccc(OC)cc4)[C@H]3CC[C@H]2C1=O
Solution: true
